Target: Adenosine receptor A3 (Homo sapiens) (UniProt P0DMS8)
Sequence (whole entry): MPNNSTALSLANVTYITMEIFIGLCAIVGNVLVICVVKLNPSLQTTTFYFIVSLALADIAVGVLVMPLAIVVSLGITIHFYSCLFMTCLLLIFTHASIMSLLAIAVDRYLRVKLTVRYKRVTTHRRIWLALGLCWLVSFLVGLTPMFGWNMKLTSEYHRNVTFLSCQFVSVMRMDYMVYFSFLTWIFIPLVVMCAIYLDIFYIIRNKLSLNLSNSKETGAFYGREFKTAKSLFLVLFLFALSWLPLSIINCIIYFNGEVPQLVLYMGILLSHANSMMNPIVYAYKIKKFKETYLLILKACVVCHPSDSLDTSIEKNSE
Experiment: Displacement of [125I]ABMECA from human A3R expressed in CHO cell membranes at 1 uM measured after 120 mins by scintillation counting method relative to control
ENDPOINT_NAME: inhibition (%)

As a guide, the following entries are already answered.
- N#Cc1c(N)nc(NCCO)c(C#N)c1-c1ccco1: 17
- N#Cc1c(N)nc(SCCO)c(C#N)c1-c1ccco1: 29
- N#Cc1c(N)nc(SCC(=O)OCc2ccccc2)c(C#N)c1-c1ccco1: 1
- N#Cc1c(N)nc(OCCO)c(C#N)c1-c1ccco1: 3
- N#Cc1c(N)nc(NCCO)c(C#N)c1-c1cccs1: 29

P. N#Cc1c(NC2CC2)nc(SCCO)c(C#N)c1-c1ccco1
Q. COC(=O)c1cccc(CSc2nc(N)c(C#N)c(-c3cccs3)c2C#N)c1
Task: Quick check, higher inhibition between P and Q ? Kindly give the label for the entry you pick.
Result: P

P. N#Cc1c(N)nc(SCC(=O)c2ccccc2)c(C#N)c1-c1ccco1
Q. COC(=O)c1cccc(CSc2nc(N)c(C#N)c(-c3cccnc3)c2C#N)c1
Task: Param metric = inhibition; output whichever of P , Q has the minimum value. Kindly give the label for the entry you pick.
Result: Q
(Q: 8%, P: 26%)
